Where these numbers come from: patent US20160185837A1

Target: T1, mouse GIP receptor (mouse, UniProt Q0P543 19-460)
T1 sequence (looked up): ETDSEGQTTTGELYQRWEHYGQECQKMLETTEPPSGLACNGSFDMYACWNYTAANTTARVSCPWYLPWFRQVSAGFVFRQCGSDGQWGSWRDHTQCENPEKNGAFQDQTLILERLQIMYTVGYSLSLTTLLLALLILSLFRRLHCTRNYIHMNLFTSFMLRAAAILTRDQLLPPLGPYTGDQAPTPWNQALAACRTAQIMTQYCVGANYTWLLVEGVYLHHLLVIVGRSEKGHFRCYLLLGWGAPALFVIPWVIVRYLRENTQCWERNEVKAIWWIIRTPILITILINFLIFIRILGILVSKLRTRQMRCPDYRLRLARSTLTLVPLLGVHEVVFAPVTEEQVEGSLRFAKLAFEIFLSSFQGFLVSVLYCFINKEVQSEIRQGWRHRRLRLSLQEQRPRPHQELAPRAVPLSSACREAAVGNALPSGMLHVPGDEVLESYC
Experiment: cell-based or functional assay
Catalogue of cAMP EC50 readings, one per entry.
readout: cAMP EC50 (nM)

> print(dat)
                                     binder    readout  operator  observed
1  IP323 (Fc fusion) YSEGTFTSDYSKLLEEEAVRLFIEWLVKGPGGGGGSGGGGSGGGGSGGGGSGGGGSGGGGSA  cAMP EC50         =        65
2  IP411 (Fc fusion) YGEGTFTSDYSKLLEEEAVRLFIEWLVKGPGGGGGGGGGGGGGGGGGGGGACPPC  cAMP EC50         >       631
3  IP327 (Fc fusion) YSEGTFTSDYSKLLEEEAVRLFIEWLLAGGGGGGGSGGGGSGGGGSGGGGSGGGGSGGGGSA  cAMP EC50         =       1.2
4  IP361 (Fc fusion) YSEGTFTSDYRILKEEEAVRLFIEWLLAGGGGGGSGGGGSGGGGSGGGGSATHTCPPC  cAMP EC50         =      0.19
5  IP374 (Fc fusion) YSEGTFTSLYSKLLEEEAVRLFIEWLLAGGGGGGSGGGGSGGGGSGGGGSATHTCPPC  cAMP EC50         =       1.9
